Relative activity (%) overview
- Tested System: T1, CD8α-Fc fusion protein (human)
- T1 construct: also called CD8 α-Fc protein; CD8α-Fc tag antigen
- T1 sequence (chain, as listed by the source): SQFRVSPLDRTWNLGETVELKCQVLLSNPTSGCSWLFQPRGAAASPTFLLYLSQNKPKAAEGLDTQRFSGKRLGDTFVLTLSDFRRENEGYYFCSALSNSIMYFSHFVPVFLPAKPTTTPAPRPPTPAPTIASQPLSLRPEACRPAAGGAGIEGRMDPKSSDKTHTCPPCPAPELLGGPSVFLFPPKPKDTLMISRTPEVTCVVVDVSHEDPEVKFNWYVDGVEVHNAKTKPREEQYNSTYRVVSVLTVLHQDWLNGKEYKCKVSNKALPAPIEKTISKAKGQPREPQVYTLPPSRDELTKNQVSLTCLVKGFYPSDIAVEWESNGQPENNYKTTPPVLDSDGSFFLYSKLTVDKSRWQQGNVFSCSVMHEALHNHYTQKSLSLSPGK
- Assay Notes: ELISA on coated CD8α-Fc, relative to C2-cHis control
The figure you give is taken to be in %; do not add the unit.

# Binder, Result Units, Relative activity (%)
records = [
    ("S13-cHis antibody (VHH, HEK293 construct; an E. coli preparation is also described) VHH: QLQLVESGGGLVQPGGSLRLSCVVSGSIFAINTMGWYRQAPGKQRELVATMHSYGSTNYADSVKGRFTISRDNAKKTVYLQMNSLKPADTAVYYCHADDTGWGTVDSWGQGTQVTVSS", "%", 142),
]

Now turn to the next binder.
Exercise: If you can, please state the reported Relative activity (%) value of S36-cHis antibody (VHH, HEK293 construct; an E. coli preparation is also described) VHH: QVQLVESGGGLVQAGGSLRLSCAASIRTFSDYAMAWFRQGPRKEREFVAAISWNGVTTFYADSVKGRFTISRDDAKNSVYLQMNSLKPEDTAVYYCAGGLNVGWGTHEREYDDWGQGTQVTVSS .
Key: 289

Ref: patent US20240209089A1
